molecules and their reported IC50
# assay-system: C-X-C chemokine receptor type 3 (Homo sapiens)
# Sequence (P49682 whole entry): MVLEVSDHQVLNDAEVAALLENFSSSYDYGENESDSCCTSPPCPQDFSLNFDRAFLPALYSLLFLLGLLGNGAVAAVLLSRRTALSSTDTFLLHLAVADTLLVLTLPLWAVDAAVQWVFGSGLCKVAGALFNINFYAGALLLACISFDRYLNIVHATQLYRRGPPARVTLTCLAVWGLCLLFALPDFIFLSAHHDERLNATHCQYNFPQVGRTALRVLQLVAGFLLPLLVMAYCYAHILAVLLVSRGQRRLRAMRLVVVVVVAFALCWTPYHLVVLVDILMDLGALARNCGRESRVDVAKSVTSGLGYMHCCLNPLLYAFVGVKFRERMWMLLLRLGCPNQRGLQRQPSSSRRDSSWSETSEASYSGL
measured-parameter: IC50 (nM)

>>> df
                                   molecule                              assay_system   u  result_number
0  COc1cc(CN(CC2CC2)C(CC(=O)O)c2ccc(Cl)c(F)c2)ccc1SCCN1C(=O)CCC1=O (centres undefined)  C-X-C chemokine receptor type 3 (Homo sapiens)  nM             40
1  COc1cc(CN(CC2CCCC2)C(C(=O)O)c2ccc(Cl)cc2)ccc1OCCN1C(=O)CCC1=O (centres undefined)  C-X-C chemokine receptor type 3 (Homo sapiens)  nM            467
2  CCOC(=O)CC(c1ccc2c(c1)CCO2)N(Cc1ccc(OCCN2C(=O)CCC2=O)c(OC)c1)CC(C)C (centres undefined)  C-X-C chemokine receptor type 3 (Homo sapiens)  nM            686
3  CCCN(Cc1ccc(OCCN2C(=O)CCC2=O)c(OC)c1)[C@H](C(=O)O)c1ccc(Cl)c(Cl)c1  C-X-C chemokine receptor type 3 (Homo sapiens)  nM            495
